measuredMetric: melting point (°C)
Express it in °C; write the number only.

Query: Would you mind telling me what melting point value was observed for `Cc1ccc(-n2nc(C)cc2-c2ccnc(Cl)c2)cc1` ?
Reply: 100.07

Query: Would you mind telling me what melting point value was observed for `Cc1ccc(-n2nc(C)cc2-c2ccnc(NCCO)c2)cc1` ?
Reply: 148.2

Query: Would you mind telling me what melting point value was observed for `Cc1ccc(-n2nc(C)cc2-c2ccnc(NCc3cccnc3)c2)cc1` ?
Reply: 108.94

----------
// reported IC50 for each item listed
# Tested on: TNF-a (LPS-stimulated human peripheral blood mononuclear cells)
# experimentalDetails: TNF Cell Assay: LPS stimulation of human PBM cells, TNF-a by ELISA
# Type: cell-based
# experimentalContext: PBMC, LPS 20 ng/ml, overnight 37° C., compound 10-0.41 μM
Express it in µM; write the number only.

{"smilesData": "Cc1cccc(-n2nc(C)cc2-c2ccnc(NCCc3ccccc3)c2)c1", "unitAbbreviation": "µM", "IC50": 0.02}
{"smilesData": "Cc1cccc(-n2nc(C)cc2-c2ccnc(NCCO)c2)c1", "unitAbbreviation": "µM", "IC50": 0.1}
{"smilesData": "Cc1cccc(-n2nc(C)cc2-c2ccnc(NCc3ccccc3)c2)c1", "unitAbbreviation": "µM", "IC50": 0.1}
{"smilesData": "Cc1cnn(-c2cccc(F)c2)c1-c1ccncc1", "unitAbbreviation": "µM", "IC50": 4}
{"smilesData": "CCNc1cc(-c2cc(C)nn2-c2ccc(C)cc2)ccn1", "unitAbbreviation": "µM", "IC50": 0.2}

Query: Would you mind telling me what IC50 value was observed for `Cc1ccc(-n2nc(C)cc2-c2ccnc(Cl)c2)cc1` ?
Reply: 2.9

Query: Would you mind telling me what IC50 value was observed for `Cc1ccc(-n2nc(C)cc2-c2ccnc(NCc3ccccc3)c2)cc1` ?
Reply: 1.1

----------
measuredMetric: melting point (°C)
Express it in °C; write the number only.

Recorded results for 2 compounds are shown here.
{"smilesData": "Cc1ccc(-n2nc(C)cc2-c2ccnc(NCc3ccccc3)c2)cc1", "unitAbbreviation": "°C", "melting point": 102.1}
{"smilesData": "Cc1ccc(-n2nc(C)cc2-c2cccc(N)c2)cc1", "unitAbbreviation": "°C", "melting point": 94.38}

Query: Would you mind telling me what melting point value was observed for `CCNc1cc(-c2cc(C)nn2-c2ccc(C)cc2)ccn1` ?
Reply: 97.15

Query: Would you mind telling me what melting point value was observed for `Cc1cc(-c2ccnc(NCCO)c2)n(-c2ccc(Cl)cc2)n1` ?
Reply: 137.57

----------
# systemTested: human p38 kinase alpha (Homo sapiens)
# Construct: The coding region of the human p38a cDNA was obtained by PCR-amplification from RNA isolated from the human monocyte cell line THP.1; GST (N); made in house; host or cells: E. coli DH10B
# experimentalDetails: p38 Kinase Assay (in vitro; PHAS-I/32P-ATP format or EGFRP/33P-ATP format)
# Type: biochemical
# experimentalContext: activated human p38 kinase alpha, 50 μM unlabeled ATP; table does not say which of the two assay formats
// reported IC50 for each item listed
Express it in µM; write the number only.

Recorded results for 5 compounds are shown here.
{"smilesData": "O=C(c1cnn(-c2ccc(F)cc2)c1-c1ccncc1)N1CCNCC1", "measuredMetric": "IC50", "observedResult": 65.1}
{"smilesData": "Cc1cccc(-n2nc(C)cc2-c2ccnc(S(C)(=O)=O)c2)c1", "measuredMetric": "IC50", "observedResult": 29.9}
{"smilesData": "Cc1cc(-c2ccnc(Cl)c2)n(-c2cccc(F)c2)n1", "measuredMetric": "IC50", "observedResult": 67.7}
{"smilesData": "CNc1cc(-c2cc(C)nn2-c2ccc(C)cc2)ccn1", "measuredMetric": "IC50", "observedResult": 0.29}
{"smilesData": "COC(=O)c1cnn(-c2ccc(F)cc2)c1-c1ccncc1", "measuredMetric": "IC50", "observedResult": 2.68}

Query: Would you mind telling me what IC50 value was observed for `Cc1cccc(-n2ncc(C)c2-c2ccncc2)c1` ?
Reply: 4.9

Query: Would you mind telling me what IC50 value was observed for `Cc1cc(-c2ccnc(NCCO)c2)n(-c2ccc(Cl)cc2)n1` ?
Reply: 0.07

Query: Would you mind telling me what IC50 value was observed for `Cc1cccc(-n2nc(C)cc2-c2ccnc(NCc3ccccc3)c2)c1` ?
Reply: 0.002

Query: Would you mind telling me what IC50 value was observed for `Cc1cc(-c2ccnc(NCCc3ccccc3)c2)n(-c2ccc(Cl)cc2)n1` ?
Reply: 0.05

Query: Would you mind telling me what IC50 value was observed for `Cc1cccc(-n2nc(C)cc2-c2ccnc(N)c2)c1` ?
Reply: 0.35

----------
# Test system: TNF-a (LPS-stimulated human peripheral blood mononuclear cells)
# experimentalDetails: TNF Cell Assay: LPS stimulation of human PBM cells, TNF-a by ELISA
# Type: cell-based
# experimentalContext: PBMC, LPS 20 ng/ml, overnight 37° C., compound 10-0.41 μM
measuredMetric: IC50 (µM)
Express it in µM; write the number only.

{"smilesData": "Cc1ccc(-n2nc(C)cc2-c2ccnc(NCc3cccnc3)c2)cc1", "unitAbbreviation": "µM", "observedResult": 1.5}
{"smilesData": "COc1cc(-c2cc(C)nn2-c2cccc(C)c2)ccn1", "unitAbbreviation": "µM", "observedResult": 1.9}
{"smilesData": "Cc1cccc(-n2nc(C)cc2-c2ccnc(C#N)c2)c1", "unitAbbreviation": "µM", "observedResult": 1.7}

Here's the next entry for you.
Query: Would you mind telling me what IC50 value was observed for `Cc1cccc(-n2nc(C)cc2-c2ccnc(C(N)=O)c2)c1` ?
Reply: 5

----------
measuredMetric: melting point (°C)
Express it in °C; write the number only.

Recorded results for 2 compounds are shown here.
{"smilesData": "Cc1cnn(-c2ccc(F)cc2)c1-c1ccncc1", "measuredMetric": "melting point", "observedResult": 135.86}
{"smilesData": "Cc1cccc(-n2ncc(C)c2-c2ccncc2)c1", "measuredMetric": "melting point", "observedResult": 141.77}

Here's the next entry for you.
Query: Would you mind telling me what melting point value was observed for `Cc1cc(-c2ccnc(NCc3ccccc3)c2)n(-c2ccc(Cl)cc2)n1` ?
Reply: 105.53

----------
# Tested on: TNF-a (LPS-stimulated human peripheral blood mononuclear cells)
# experimentalDetails: TNF Cell Assay: LPS stimulation of human PBM cells, TNF-a by ELISA
# Assay type: cell-based
# experimentalContext: PBMC, LPS 20 ng/ml, overnight 37° C., compound 10-0.41 μM
// reported IC50 for each item listed

Recorded results for 2 molecules are shown here.
{"smilesData": "Cc1ccc(-n2nc(C)cc2-c2cccc(N)c2)cc1", "systemTested": "TNF-a (LPS-stimulated human peripheral blood mononuclear cells)", "IC50": "> 10 µM"}
{"smilesData": "Cc1cc(-c2ccnc(C#N)c2)n(-c2ccc(F)cc2)n1", "systemTested": "TNF-a (LPS-stimulated human peripheral blood mononuclear cells)", "IC50": "> 10 µM"}

Query: API: value(readout=IC50, system=TNF-a (LPS-stimulated human peripheral blood mononuclear cells)) for record `O=C(c1cnn(-c2ccc(F)cc2)c1-c1ccncc1)N1CCNCC1`
Reply: > 10 µM

----------
measuredMetric: melting point

Query: Would you mind telling me what melting point value was observed for `NC(=O)c1cnn(-c2ccc(F)cc2)c1-c1ccncc1` ?
Reply: 215 to 216 °C

Query: Would you mind telling me what melting point value was observed for `Cc1cccc(-n2nc(C)cc2-c2ccnc(S(C)(=O)=O)c2)c1` ?
Reply: 140 to 142 °C

Query: Would you mind telling me what melting point value was observed for `Cc1cc(-c2ccnc(N=[N+]=[N-])c2)n(-c2cccc(F)c2)n1` ?
Reply: 134 to 135 °C

Query: Would you mind telling me what melting point value was observed for `Cc1cccc(-n2nc(C)cc2-c2cc[nH]c(=O)c2)c1` ?
Reply: 182 to 183 °C

Query: Would you mind telling me what melting point value was observed for `CCCc1c[nH][n+](-c2cccc(F)c2)c1-c1ccncc1` ?
Reply: 93 to 94 °C

Query: Would you mind telling me what melting point value was observed for `Cc1cccc(-n2nc(C)cc2-c2ccnc(N(C)C)c2)c1` ?
Reply: 84 to 85 °C

----------
// reported IC50 for each item listed
# systemTested: human p38 kinase alpha (Homo sapiens, UniProt Q16539)
# Construct: The coding region of the human p38a cDNA was obtained by PCR-amplification from RNA isolated from the human monocyte cell line THP.1; GST (N); made in house; host or cells: E. coli DH10B
# Sequence (Q16539 whole entry): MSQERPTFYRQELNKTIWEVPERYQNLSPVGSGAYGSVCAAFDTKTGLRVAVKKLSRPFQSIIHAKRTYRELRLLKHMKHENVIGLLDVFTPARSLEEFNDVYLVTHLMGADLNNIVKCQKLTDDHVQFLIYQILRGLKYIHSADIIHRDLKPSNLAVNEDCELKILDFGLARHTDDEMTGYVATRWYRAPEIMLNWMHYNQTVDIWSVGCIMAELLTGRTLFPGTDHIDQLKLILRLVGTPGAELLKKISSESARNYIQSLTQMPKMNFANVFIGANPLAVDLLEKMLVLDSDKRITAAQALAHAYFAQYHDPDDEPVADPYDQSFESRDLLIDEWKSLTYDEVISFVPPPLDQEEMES
# experimentalDetails: p38 Kinase Assay (in vitro; PHAS-I/32P-ATP format or EGFRP/33P-ATP format)
# Format: biochemical
# experimentalContext: activated human p38 kinase alpha, 50 μM unlabeled ATP; table does not say which of the two assay formats
Express it in µM; write the number only.

{"molecule": "Fc1ccc(-n2nccc2-c2ccnc(Cl)c2)cc1 [Example 45]", "unitAbbreviation": "µM", "IC50": 1.06}
{"molecule": "Cc1cccc(-n2nc(C)cc2-c2ccnc(N(C)C)c2)c1 [Example 35]", "unitAbbreviation": "µM", "IC50": 1.15}
{"molecule": "Cc1cccc(-n2nc(C)cc2-c2cc[nH]c(=O)c2)c1 [Example 23]", "unitAbbreviation": "µM", "IC50": 9.55}
{"molecule": "Fc1ccc(-n2ncc(N3CCNCC3)c2-c2ccncc2)cc1 [Example 18]", "unitAbbreviation": "µM", "IC50": 35.7}

Here's the next entry for you.
Query: Would you mind telling me what IC50 value was observed for Cc1cc(-c2ccnc(NCc3ccccc3)c2)n(-c2ccc(Cl)cc2)n1 [Example 12] ?
Reply: 0.003

Cited source: patent US6509361B1
